B1: F1*; the commonest letter at each place (parent)
chain: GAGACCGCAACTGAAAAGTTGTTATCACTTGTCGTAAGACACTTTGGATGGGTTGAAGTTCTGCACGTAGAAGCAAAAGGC

variants of: B1; assay: fraction ligated after 30 min (ligated reads / total reads); higher = more ligase activity; conditions: with F1*sub RNA substrate (template-directed ligation), 42 °C
Quick list: fraction ligated per entry.
Observable: fraction ligated

# Variant descriptor, Observed
measured = [
    ("C28T G46C", 0.8),
    ("G31T A36G", 0.798),
    ("A27C G34T", 0.815),
    ("T35A A39C", 0.828),
    ("G46T A57T", 0.754),
    ("T30G T43A", 0.859),
    ("C33G T44A", 0.812),
    ("T25G A48C", 0.819),
    ("C26T A48C", 0.418),
    ("A37T G55T", 0.828),
    ("T32C A48T", 0.114),
    ("A27C T43C", 0.78),
    ("A27G T44A", 0.812),
    ("G34C G46C", 0.757),
    ("T29G T45A", 0.673),
    ("T25A T32A", 0.094),
    ("C28T A48C", 0.606),
    ("G55T A56T", 0.378),
    ("T29G G34C", 0.808),
    ("A36G C40G", 0.841),
    ("T30A A41T", 0.859),
    ("A24T G34C", 0.557),
    ("T29G A37C", 0.814),
    ("C40A T49G", 0.674),
    ("C28G T43G", 0.794),
    ("T43A T45C", 0.696),
    ("A24T A57T", 0.503),
    ("C26A G50T", 0.0739),
    ("A37G G50T", 0.785),
    ("G38A T43A", 0.835),
    ("A37C T45C", 0.778),
    ("C28A G50A", 0.154),
    ("T25A T35G", 0.764),
    ("T45C T49G", 0.0625),
    ("G38C G55T", 0.768),
    ("A37T A57T", 0.838),
    ("A37C A57G", 0.838),
    ("C33A C42A", 0.879),
    ("T29C G38T", 0.816),
    ("A37G G47A", 0.831),
    ("G47A T49G", 0.798),
    ("G46C A56G", 0.315),
    ("C26T A56C", 0.29),
    ("G38C T49G", 0.255),
    ("C26T T35C", 0.792),
    ("T30G G34A", 0.825),
    ("T25C T35G", 0.801),
    ("G31T T35G", 0.803),
    ("C28T T45A", 0.532),
    ("T23G C42T", 0.838),
    ("T25C T49A", 0.777),
    ("T35C C42A", 0.841),
    ("C40T T49C", 0.38),
    ("G34A G50A", 0.625),
    ("T23C T32A", 0.821),
    ("G31C A56T", 0.694),
    ("T30C G47C", 0.0928),
    ("T32G A48C", 0.401),
    ("T32G T43G", 0.792),
    ("G50T A57T", 0.324),
    ("T25C A36T", 0.793),
    ("A41C G55T", 0.751),
    ("T32A T35A", 0.855),
    ("A36T A56C", 0.797),
    ("T25C T49G", 0.777),
    ("G34T C42A", 0.849),
    ("T23A A57G", 0.818),
    ("T43G G46T", 0.787),
    ("A24G C40T", 0.84),
    ("A27T A39C", 0.782),
    ("G34C T44C", 0.803),
    ("A37G C40T", 0.854),
    ("T25A T43A", 0.463),
    ("C28T T43G", 0.8),
    ("C40T T45A", 0.791),
    ("T53G", 0.831),
    ("C28A T44C", 0.802),
    ("C26G A27C", 0.782),
    ("T44G A57G", 0.791),
    ("C28G A57T", 0.79),
    ("C33G G46C", 0.779),
    ("T25C T43G", 0.8),
    ("C28T A39T", 0.796),
    ("T29G G55C", 0.584),
    ("C28A G34A", 0.812),
    ("A37T A57C", 0.854),
    ("A37T T49G", 0.791),
    ("C33A T49G", 0.739),
    ("T23A T44A", 0.819),
    ("A48T G55T", 0.17),
    ("T32A G50C", 0.0632),
]
